t1/2 reference
# SUBJECT OF TEST: T1, Macaca fascicularis IL2Rγ extracellular domain expressed with a C-terminal myc-myc-hexahistidine tag (Macaca fascicularis)
# T1 construct: also called mfIL-2Rg-MMH; mfIL-2RG-MMH
# T1 chain: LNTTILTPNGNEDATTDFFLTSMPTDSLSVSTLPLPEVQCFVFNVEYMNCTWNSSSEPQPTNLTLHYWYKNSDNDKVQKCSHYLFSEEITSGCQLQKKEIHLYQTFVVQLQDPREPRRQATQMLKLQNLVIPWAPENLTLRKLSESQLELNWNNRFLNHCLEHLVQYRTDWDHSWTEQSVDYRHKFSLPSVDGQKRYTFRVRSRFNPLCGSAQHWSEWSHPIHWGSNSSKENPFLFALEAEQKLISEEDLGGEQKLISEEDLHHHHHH
# TEST PROTOCOL: SPR, captured mAb, 25C, dissociation pH 7.4
PARAMETER: t1/2 (min)

[[record]]
binder = "H4H12884P (antibody, human IgG4 S228P, kappa, V domains shown, anti-IL2Rgamma mAb expressed with human IgG4 Fc) VH: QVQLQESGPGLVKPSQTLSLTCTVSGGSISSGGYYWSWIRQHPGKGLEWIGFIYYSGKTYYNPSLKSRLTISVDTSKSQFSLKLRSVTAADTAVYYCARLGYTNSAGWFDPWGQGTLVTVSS VL: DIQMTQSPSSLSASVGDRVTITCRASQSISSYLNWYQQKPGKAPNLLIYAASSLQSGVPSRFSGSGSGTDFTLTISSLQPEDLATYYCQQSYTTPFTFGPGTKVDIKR"
endpoint_unit = "min"
observed_value = 22

[[record]]
binder = "H4H12874P (antibody, human IgG4 S228P, kappa, V domains shown, anti-IL2Rgamma mAb expressed with human IgG4 Fc) VH: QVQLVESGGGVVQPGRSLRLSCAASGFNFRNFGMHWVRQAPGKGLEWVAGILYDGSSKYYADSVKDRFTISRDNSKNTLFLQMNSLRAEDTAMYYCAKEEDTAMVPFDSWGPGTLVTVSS VL: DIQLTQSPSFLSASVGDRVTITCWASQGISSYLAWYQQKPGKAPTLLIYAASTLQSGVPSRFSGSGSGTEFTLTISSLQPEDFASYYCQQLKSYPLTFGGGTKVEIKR"
endpoint_unit = "min"
observed_value = 70

[[record]]
binder = "H4H13541P (antibody, human IgG4 S228P, kappa, V domains shown, anti-IL2Rgamma mAb expressed with human IgG4 Fc) VH: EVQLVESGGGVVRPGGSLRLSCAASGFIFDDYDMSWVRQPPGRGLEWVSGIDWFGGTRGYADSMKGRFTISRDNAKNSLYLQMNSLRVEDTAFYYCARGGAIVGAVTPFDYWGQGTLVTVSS VL: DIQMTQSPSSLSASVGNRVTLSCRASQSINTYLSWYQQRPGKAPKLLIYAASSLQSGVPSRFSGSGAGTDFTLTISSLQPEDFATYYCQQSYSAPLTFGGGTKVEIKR"
endpoint_unit = "min"
observed_value = 52

